B1: S. cerevisiae Abp1 (full length; SH3 domain 535-592 mutated) / Hua2 (parent)
chain 1: MALEPIDYTTHSREIDAEYLKIVRGSDPDTTWLIISPNAKKEYEPESTGSSFHDFLQLFDETKVQYGLARVSPPGSDVEKIIIIGWCPDSAPLKTRASFAANFAAVANNLFKGYHVQVTARDEDDLDENELLMKISNAAGARYSIQTSSKQQGKASTPPVKKSFTPSKSPAPVSKKEPVKTPSPAPAAKISSRVNDNNDDDDWNEPELKERDFDQAPLKPNQSSYKPIGKIDLQKVIAEEKAKEDPRLVQKPTAAGSKIDPSSDIANLKNESKLKRDSEFNSFLGTTKPPSMTESSLKNDDDKVIKGFRNEKSPAQLWAERKAKQNSGNAETKAEAPKPEVPEDEPEGEPDVKDLKSKFEGLAASEKEEEEMENKFAPPPKKSEPTIISPKPFSKPQEPVKAEEAEQPKTDYKKIGNPLPGMHIEADNEEEPEENDDDWDDDEDEAAQPPLPSRNVASGAPVQKEEPEQEEIAPSLPSRNSIPAPKQEEAPEQAPEEEIEEEAEEAAPQLPSRSSAAPPPPPRRATPEKKPKENPWATAEYDYDAAEDNELTFVENDKIINIEFVDDDWWLGELEKDGSKGLFPSNYVSLGN
chain 2: MQQTKFGKMYLDHDSVVEYSEDEIVEADRITLGYKKRLSMIENQMRHLLEDFSLDVQQIEPILADLQKYYDAFLQLLQKRNKSLQCKRSTHQPVPSPMNSQTSTNAKVNLSGKLMKFQLNSVQKFDEENILRILQNKIEFEHYFQIDKGKKQKVLLLAVYQCLNGPTRLHKVLNIEGIIHNNSIRTILGKQVSSSKWTVFLYDVKLVLLAHRQDVPNLETSKMIVRYGDLFPCALYFKDHTAY

Variants of: B1
Assay Summary: DHFR protein-fragment complementation in yeast (Abp1-DHFR F[1,2] x partner-DHFR F[3]), deep mutational scanning, second methotrexate selection vs reference
Test Parameters: with Hua2; S. cerevisiae, DHFR-PCA selection in liquid with methotrexate at 30 C, two 72 h selections (the score uses the second); reference = the pre-selection culture; not an affinity; scale: DMS score: mean over two replicates of log2(f_test/f_ref + 0.5)/ln 2, minus the synonymous-codon median
Observable: screen value

Please review the following examples before continuing.
chain 1 L590H | -2.44
chain 1 F583L | -1.78
chain 1 E550K | -2.04
chain 1 E550A | -2.77
chain 1 G572R | -2.78

(A) chain 1 D557Y
(B) chain 1 D542W
For the two items A and B , which reports the higher screen value value? Which one? Tell me its label.
B
